Test system: K-562 leukemia
Procedure Text: NCI-60 one-dose screen, 48 h
Assay Conditions: 10 µM unless noted
This is part of a sample that, as a whole, favours compounds with a hit. Of some 83,000 tested, about 20% had one in any assay. The source made the active and inactive calls. How the source made its calls: active means growth percent below 10; inactive means the rest.
Outcome (select one): active, inactive

Q: Give the logged outcome of this assay for the following compound: `CN1C(=O)/C(=C\c2nc([P+](c3ccccc3)(c3ccccc3)c3ccccc3)c(N3CCOCC3)o2)SC1=S`
A: inactive

Q: Outcome? `O=C(O)c1ccc(-n2cc(/C=N/Nc3ccccc3)c(-c3ccc(F)cc3F)n2)cc1`
A: inactive

Q: Each compound tested received a call. Report the one for `CCOC(=O)c1nn(-c2ccc(S(N)(=O)=O)cc2)c2nc(C)cc(=O)n12` .
A: inactive

Q: I'd appreciate the recorded outcome for `Cc1ccccc1/C=C/C(=O)c1cccc(OCCCCOc2cccc(C(=O)/C=C/c3ccccc3C)c2)c1` from this test.
A: inactive

Q: Assay outcome for `CN(c1cc2ncc(=O)[nH]c2cc1NC(N)=NCc1ccc(Cl)cc1)C1CCCCC1` : what was it?
A: active

Q: Which outcome did this test record for the compound CCC(C(=O)[C@@H](C)[C@@H](O)[C@H](C)[C@@H]1O[C@@H]([C@@H](CC)C(=O)ONC(=O)c2ccccc2)CC[C@@H]1C)[C@H]1O[C@]2(C=CC(=O)[C@]3(CC[C@@](C)([C@H]4CC[C@](O)(CC)[C@H](C)O4)O3)O2)[C@H](C)C[C@@H]1C (stereo partly drawn) ?
A: active

Q: Could you check what this test reported for CCOC(=O)C1=C(c2ccccc2)N=C2SC=C(c3ccc(Cl)cc3)N2C1c1ccc(Br)cc1 (stereo not drawn) ?
A: inactive

Q: Call for entry `CN(C)c1ccc(C(=O)OCCCCCCl)cc1` :
A: inactive

---

System: HT29 colon
Procedure Text: NCI-60 one-dose screen, 48 h
Assay Conditions: 10 µM unless noted
This is part of a sample that, as a whole, favours compounds with a hit. Of some 83,000 tested, about 20% had one in any assay. Active and inactive are the calls of the source. Rule for the calls: active = growth percent below 10; inactive = the rest.
Choose the fitting class; nothing outside 1 for active, -1 for inactive is accepted.

// known answers, use as guide
# Compound, Label Value
records = [
    ("NC(Cc1ccc(O)c([N+](=O)[O-])c1)C(=O)O (centres undefined)", -1),
    ("CC1=NC2=Nn3c(c4cnn(-c5ccccc5)c4n/c3=N\\N)NN2C(c2ccccc2)=C1", -1),
    ("COc1ccc(OC)c(-c2nc(SCC(=O)c3ccc(C#N)cc3)[nH]c(=O)c2C#N)c1", -1),
    ("C=CCn1c(SCC(=O)Nc2ccc(C(=O)/C=C/c3ccc(Cl)cc3)cc2)nnc1-c1ccc(Br)cc1", -1),
    ("C[C@@H](CO)[C@@H]1CCC=C2CC[C@]3(C)[C@H](CC[C@@H]4[C@@]5(C)CCCNC(C)(C)[C@@H]5CC[C@]43C)[C@H]21", 1),
    ("OB1OCc2cc(/C=C/c3cccc(C(F)(F)F)c3)ccc21", -1),
    ("O=c1scc(-c2ccc(C(F)(F)F)cc2)s1", -1),
    ("CCCCn1c(=O)[nH]c(N)c([C@@H]2c3c([nH]c(=O)n(CCCC)c3=O)Oc3ccc4ccccc4c32)c1=O", 1),
    ("CCNCCNc1cc(-c2ccc(C(F)(F)F)cc2)c(C#N)c2nc3ccccc3n12", 1),
    ("CSc1nc2ncc([N+](=O)[O-])c(=O)n2[nH]1", -1),
]

For the next question, use this compound.
Q: // param item: `Nc1nc2ccc(-c3nc4ccc5[nH]ncc5c4c4c3CCCC4)cc2s1` ; yields the recorded call
A: -1

All values here come from PubChem BioAssay (NCI).
